target under test: UniProt O29889
Sequence (O29889 1-452): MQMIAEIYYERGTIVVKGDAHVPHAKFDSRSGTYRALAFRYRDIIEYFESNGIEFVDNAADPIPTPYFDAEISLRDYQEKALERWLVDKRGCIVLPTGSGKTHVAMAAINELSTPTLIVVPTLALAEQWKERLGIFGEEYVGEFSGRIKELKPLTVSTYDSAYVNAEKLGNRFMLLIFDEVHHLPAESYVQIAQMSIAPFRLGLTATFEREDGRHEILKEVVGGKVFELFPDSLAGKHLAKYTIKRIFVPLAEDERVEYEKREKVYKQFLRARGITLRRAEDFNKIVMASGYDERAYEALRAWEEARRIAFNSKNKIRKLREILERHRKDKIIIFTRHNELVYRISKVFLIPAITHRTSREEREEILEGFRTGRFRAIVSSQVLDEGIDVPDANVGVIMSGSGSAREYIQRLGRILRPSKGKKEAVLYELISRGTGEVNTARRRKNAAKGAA
quantity kind: Ki

In: // query Ki value for entry Nc1ncnc2c1ncn2[C@@H]1O[C@H](COP(=O)(O)OP(=O)(O)O)[C@@H](O)[C@H]1O [ADP]
Out: ~4 mM
